Taken from paper PMC10269531.

# assayed_system: VraS sensor histidine kinase (GST-VraS) (Staphylococcus aureus, UniProt Q99SZ7)
# Construct: GST-tagged intracellular domain, amino acids 85 to 347 (DHp and CAT)
# Sequence (Q99SZ7 85-347): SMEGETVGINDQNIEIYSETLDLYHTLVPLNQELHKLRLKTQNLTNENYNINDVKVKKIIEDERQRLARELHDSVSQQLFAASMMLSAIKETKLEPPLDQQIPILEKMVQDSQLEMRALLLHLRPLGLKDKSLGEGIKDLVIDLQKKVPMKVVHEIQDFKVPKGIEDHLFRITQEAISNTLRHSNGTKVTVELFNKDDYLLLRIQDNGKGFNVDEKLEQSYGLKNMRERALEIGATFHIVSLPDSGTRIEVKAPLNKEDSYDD
# experiment_description: PK/LDH-coupled ATPase (autophosphorylation) assay, NADH absorbance at […] nm; Michaelis-Menten inhibition kinetics
reported_property: IC50

{"given_smiles": "CCCCCCCCCCCCCCCC[n+]1ccn(Cc2ccccc2)c1C", "assayed_system": "VraS sensor histidine kinase (GST-VraS) (Staphylococcus aureus, UniProt Q99SZ7)", "value": "41 µM"}
